The values you see were collected from patent US11807625B2.

Test Summary: PK of compound of Formula (Ia) after single subcutaneous dose of solution formulations in beagle dogs
Assay type: in vivo
Test Conditions: male, beagle, dog, plasma, sc, 12 mg/kg, beagle dogs, SC 12 mg/kg, 500 mg/mL solution X (5.00% ethanol, 1.91% poloxamer 188), 3696 h, Mean n = 3
Readout Type: concentration at 3696 h
Entry format: amount then unit.

The reported concentration at 3696 h of the compound `CC(C)(C#Cc1ccc(-c2ccc(Cl)c3c(NS(C)(=O)=O)nn(CC(F)(F)F)c23)c([C@H](Cc2cc(F)cc(F)c2)NC(=O)Cn2nc(C(F)(F)F)c3c2C(F)(F)[C@@H]2C[C@H]32)n1)S(C)(=O)=O` was 8.6 nM
